Assay: chemical genetic growth profiling, strain panel (AID 1159580);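 note: tested at 20 µM; growth read once vehicle control cultures reached saturation at 30 °C; 1 = growth at the plate median or of vehicle wells; lower values mean less growth of the strain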
Conditions: S. cerevisiae deletion strains, growth OD, locus YMR001C, strain CDC5, active compounds read low
In all, about 5,500 compounds went through this assay and about 2,000 (36%) were called active. Another 18% or so got no clear call; they are omitted. Some of the results follow.
PROPERTY LABEL: normalized growth

[[record]]
molecule = "Cc1ccccc1C(=O)N1CCc2c([nH]c3ccccc23)C1C(F)(F)F (configuration not stated)"
property_label = "normalized growth"
val = "0.97 (inactive)"


Entry `C/C(=N/NC(N)=S)c1ccc(Oc2c(Cl)cncc2Cl)cc1` ; normalized growth = 0.989 (inactive)

Entry `O=C(C=C(O)c1ccc(Br)cc1)C(=O)Nc1ccccc1` ; normalized growth = 0.449 (active)

----------
Readings of normalized growth for the listed molecules
Test: chemical genetic growth profiling, strain panel (AID 1159580)
Settings: S. cerevisiae deletion strains, growth OD, locus YPR163C, strain tif3, active compounds read low
The campaign covered roughly 5,500 compounds. About 2,000 (36%) were called active. About 18% were inconclusive and are not listed. Some of the results follow.
Response field accepts a number only; no unit should be typed.

Sample answers from the record:
[[record]]
molecule = "Cc1ccc2c(c1)CC[C@H]1CC(=O)CC[C@]21C"
val = 0.974

[[record]]
molecule = "COc1ccc2c(c1)[C@@]1(C)CCC(=O)C[C@H]1CC2"
val = 0.973


Next molecule, normalized growth to be filled in.
Entry NC[C@@H]1O[C@H](O[C@@H]2[C@@H](CO)OC(O[C@@H]3[C@@H](O)[C@H](N)C[C@H](N)[C@H]3OC3O[C@H](CN)[C@@H](O)[C@H](O)[C@H]3N)[C@@H]2O)[C@H](N)[C@@H](O)[C@@H]1O (stereo partly drawn) ; normalized growth = 1.03

----------
Experiment: chemical genetic growth profiling, strain panel (AID 1159580)
Conditions: S. cerevisiae deletion strains, growth OD, locus YGR078C, strain PAC10, active compounds read low
The whole screen tested about 5,500 compounds, of which about 2,000 (36%) were called active. Roughly 18% stayed inconclusive and do not appear here. Some of the results follow.
Readings of normalized growth for the listed molecules
Response field accepts a number only; no unit should be typed.

[[record]]
molecule = "CCC(C(N)=O)c1ccccc1 (stereo not drawn)"
val = 1.03

[[record]]
molecule = "COC(=O)c1c(C)[nH]c(C)c1C(C)=O"
val = 1.03

[[record]]
molecule = "CCOC(=O)C1=C(C)NC(=S)NC1c1cccc(O)c1 (stereo not drawn)"
val = 1

[[record]]
molecule = "COc1ccc(CC2c3cc(OC)c(OC)cc3CCN2C)cc1OC (stereo not drawn)"
val = 0.967

[[record]]
molecule = "N#Cc1c(Cl)c(Cl)c(Cl)c(C#N)c1Cl"
val = 1.01

[[record]]
molecule = "C[N+](C)(C)CCOP(=O)([O-])OP(=O)(O)OC[C@H]1OC(n2ccc(N)nc2=O)[C@H](O)[C@@H]1O (stereo partly drawn)"
val = 0.997

[[record]]
molecule = "CCCC(=O)NCCc1c2n(c3ccc(OC)cc13)CCCc1ccccc1-2"
val = 1.01

[[record]]
molecule = "CC(C)=CCc1c(O)cc2oc(C)cc(=O)c2c1O"
val = 0.959


Entry `c1ccc(CC2=NCCN2)cc1` ; normalized growth = 0.988

Entry `N#Cc1cnn(-c2ccccc2)c1-n1cccc1` ; normalized growth = 0.974

Entry `CCC1(c2ccccc2)C(=O)NCNC1=O` ; normalized growth = 1.01

Entry `O=C(O)c1cnn(-c2ccccc2)c1C(F)(F)F` ; normalized growth = 0.99

----------
Assay: chemical genetic growth profiling, strain panel (AID 1159580)
Conditions: S. cerevisiae deletion strains, growth OD, locus YLL041C, strain sdh2
Out of some 5,500 compounds screened, about 2,000 (36%) were called active. Inconclusive results (about 18%) are left out. Cut-off read from the data, not from the text of the source: active = normalized growth mostly below about 0.91 (no sharp cut-off); inconclusive = no clear call, values can overlap the other calls; inactive = mostly above about 0.92. The list shows a part of the results.
The categories you may choose from are Y (active), N (inactive)

[[record]]
molecule = "CCCCCCCCCCCCC[N+](C)(C)Cc1ccccc1"
group = "Y"

[[record]]
molecule = "COC(=O)C1[C@H]2C[C@H]3c4[nH]c5ccccc5c4CCN3C[C@@H]2CC[C@@H]1O (some centres not stated)"
group = "N"

[[record]]
molecule = "CC(=O)OC1CC23CC24CCC(OC2OCC(O)C(O)C2O)C(C)(C)C4CCC3C2(C)CC3OC4(CC(C)C3C12C)OC(O)C1(C)OC41 (configuration not stated)"
group = "N"

[[record]]
molecule = "Cc1cc(=O)c2c(O)cc(O)c(C)c2o1"
group = "N"

[[record]]
molecule = "OC(CCN1CCCCC1)(c1ccccc1)c1ccccc1"
group = "N"


Input line: Recorded call for `S=C=NCc1ccccc1` ?
Output line: Y

Input line: Recorded call for COc1cc2c(cc1OC)C(=O)C(CC1CCN(Cc3ccccc3)CC1)C2 (configuration not stated) ?
Output line: N

Input line: Recorded call for `N#Cc1c(Cl)c(Cl)c(Cl)c(C#N)c1Cl` ?
Output line: Y

Input line: Recorded call for `COc1cc(O)c(C(=O)c2ccccc2)cc1O` ?
Output line: N

----------
Assay: chemical genetic growth profiling, strain panel (AID 1159580);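 note: tested at 20 µM; growth read once vehicle control cultures reached saturation at 30 °C; 1 = growth at the plate median or of vehicle wells; lower values mean less growth of the strain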
Conditions: S. cerevisiae deletion strains, growth OD, locus YGL227W, strain vid30, active compounds read low
About 2,000 (36%) of roughly 5,500 compounds were called active. Another 18% or so got no clear call; they are omitted. This is one part of the list.
PROPERTY LABEL: normalized growth

Sample answers from the record:
[[record]]
molecule = "O=C(O)c1ccccc1OP(=O)(O)O"
val = "1.01 (inactive)"

[[record]]
molecule = "CC(C)[C@H](N)C(=O)OCCOCn1cnc2c(=O)[nH]c(N)nc21"
val = "1.01 (inactive)"

[[record]]
molecule = "COC(=O)COc1cc(Cl)c(Cl)cc1Cl"
val = "0.979 (inactive)"

[[record]]
molecule = "O=C(O)COc1cc(Cl)c(Cl)cc1Cl"
val = "1 (inactive)"

[[record]]
molecule = "CCN(CC)C(=S)SSC(=S)N(CC)CC"
val = "0.0649 (active)"

[[record]]
molecule = "CCC1(c2ccccc2)C(=O)NCNC1=O"
val = "0.98 (inactive)"

[[record]]
molecule = "COc1cccc2c1CCC1CC(=O)CCC21C (configuration not stated)"
val = "0.998 (inactive)"

[[record]]
molecule = "NC/C=C/C(=O)O"
val = "0.988 (inactive)"


Entry COC(=O)[C@@H]1C(O)CC[C@H]2CN3CCc4c([nH]c5ccccc45)[C@@H]3C[C@@H]21 (some centres not stated) ; normalized growth = 1.02 (inactive)

Entry COC(=O)C1[C@H]2C[C@H]3c4[nH]c5ccccc5c4CCN3C[C@@H]2CC[C@@H]1O (some centres not stated) ; normalized growth = 0.962 (inactive)

Entry `CNc1ccccc1C(=O)N1CCc2c([nH]c3ccccc23)C1=O` ; normalized growth = 1 (inactive)

----------
Assay: chemical genetic growth profiling, strain panel (AID 1159580);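 note: tested at 20 µM; growth read once vehicle control cultures reached saturation at 30 °C; 1 = growth at the plate median or of vehicle wells; lower values mean less growth of the strain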
Settings: S. cerevisiae deletion strains, growth OD, locus YHR142W, strain chs7, active compounds read low
Among all 5,500 compounds or so, about 2,000 (36%) were called active. Roughly 18% stayed inconclusive and do not appear here. This is one part of the list.
Readings of normalized growth for the listed molecules

[[record]]
molecule = "COc1ccc2cc1Oc1ccc(cc1)C[C@H]1c3cc(c(OC)cc3CCN1C)Oc1c(OC)c(OC)cc3c1[C@H](C2)N(C)CC3"
property_label = "normalized growth"
val = "1.01 (inactive)"


Entry `CC[C@@H](CO)NCCN[C@@H](CC)CO` ; normalized growth = 1.02 (inactive)

Entry `COc1ccc2cc1Oc1ccc(cc1)C[C@H]1c3c(cc4c(c3Oc3cc5c(cc3OC)CCN(C)[C@@H]5C2)OCO4)CCN1C` ; normalized growth = 1.03 (inactive)

Entry `CCC1(c2ccccc2)C(=O)NCNC1=O` ; normalized growth = 1 (inactive)

Entry `NC(=O)N1c2ccccc2CC(=O)c2ccccc21` ; normalized growth = 0.977 (inactive)

Entry CNC1(C)C2CCC(C2)C1(C)C (stereo not given) ; normalized growth = 0.974 (inactive)

Entry CCCCCC(=O)O[C@]1(C(C)=O)CCC2C3CCC4=CC(=O)CC[C@]4(C)C3CC[C@@]21C (stereo not given in full) ; normalized growth = 1.02 (inactive)

Entry `Cc1ccc(O)cc1` ; normalized growth = 1.03 (inactive)

Entry COC(=O)C1=COC(OC2OC(CO)C(O)C(O)C2O)C2C(C)CC(=O)C12O (stereo not given) ; normalized growth = 0.993 (inactive)

Entry CC(=O)O[C@]1(C(C)=O)CCC2C3C[C@H](C)C4=CC(=O)CC[C@]4(C)C3CC[C@@]21C (stereo not given in full) ; normalized growth = 0.841 (active)

----------
Readings of normalized growth for the listed compounds
Assay: chemical genetic growth profiling, strain panel (AID 1159580);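 note: tested at 20 µM; growth read once vehicle control cultures reached saturation at 30 °C; 1 = growth at the plate median or of vehicle wells; lower values mean less growth of the strain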
Conditions: S. cerevisiae deletion strains, growth OD, locus YPL241C, strain CIN2, active compounds read low
Screen size: about 5,500 compounds; about 2,000 (36%) were called active. Another 18% or so got no clear call; they are omitted. Some of the results follow.

[[record]]
compound = "O=C(O)c1cc(=O)c2ccc(Cl)cc2[nH]1"
property_label = "normalized growth"
val = "1.01 (inactive)"

[[record]]
compound = "Ic1ccccc1CNC1C2CCN(CC2)C1C(c1ccccc1)c1ccccc1 (stereo not drawn)"
property_label = "normalized growth"
val = "0.998 (inactive)"


Next compound, normalized growth to be filled in.
Entry CC(C(=O)O)c1ccc2c(c1)[nH]c1ccc(Cl)cc12 (stereo not drawn) ; normalized growth = 1.01 (inactive)
